system: Interleukin-17A; assay: Interleukin-17A secretion from PMA/ionomycin-stimulated PBMCs; type: cell-based, human; conditions: human PBMC model, relative EC50; read-out: Inhibition of IL-17A release, Rel EC50
Attribute measured: EC50

Query: Dear colleague, I am looking for the recorded EC50 of the following compound: Nc1nnc(C(c2ccccc2)c2ccccc2)c(N)n1 [Compound 2]
Response: 261 nM

* * *

assay: PBMC viability in the IL-17A human PBMC model; format: cell-based; details: PBMCs stimulated with PMA/ionomycin; human PBMC model, maximum effect; read-out: Inhibition of PMBC viability, Max effect
Attribute measured: cytotoxicity at 24 h (%)
Please reply with the bare figure in % and do not write the unit itself.

Query: Dear colleague, I am looking for the recorded cytotoxicity at 24 h of the following compound: Nc1nnc(C(c2ccccc2)c2ccccc2)c(N)n1
Response: 38
